Target: Metabotropic glutamate receptor 8 (Rattus norvegicus)
Experiment: mGlu8-mediated intracellular calcium response modulators – cell-based, HEK293 rmGlu8, Gqi9 chimera, Fluo-4 calcium, counter-screen for GIRK activator project, confirmation (AID 623869)
Settings: HEK293 rmGlu8/Gqi9 calcium flux, Fluo-4 fluorescence; glutamate at EC20 added after compound
The whole screen tested about 2,100 compounds, of which about 75 (4%) were called active. Many of the other results were omitted from the sample, so actives are more common in it than they were.
Quantity Name: outcome

>  <Entry Smiles>
CC(C)CNC(=S)Nc1ccc(Oc2ccccc2)cc1

>  <Target Or Test System>
Metabotropic glutamate receptor 8 (Rattus norvegicus)

>  <outcome>
active; 2

$$$$
>  <Entry Smiles>
S=c1nc(-c2ccc(Br)cc2)oc2c1CCCC2

>  <Target Or Test System>
Metabotropic glutamate receptor 8 (Rattus norvegicus)

>  <outcome>
inactive; 0

$$$$
>  <Entry Smiles>
FC(F)(F)c1cccc(N2CCN(C(=S)NC3CCCCC3)CC2)c1

>  <Target Or Test System>
Metabotropic glutamate receptor 8 (Rattus norvegicus)

>  <outcome>
inactive; 0

$$$$
>  <Entry Smiles>
O=C(N/N=C/c1ccccn1)c1ccc(Br)cc1

>  <Target Or Test System>
Metabotropic glutamate receptor 8 (Rattus norvegicus)

>  <outcome>
inactive; 0

$$$$
>  <Entry Smiles>
COc1ccc(NC(=S)Nc2ccc(OCc3ccccc3)cc2)cc1OC

>  <Target Or Test System>
Metabotropic glutamate receptor 8 (Rattus norvegicus)

>  <outcome>
inactive; 0

$$$$

Fill in: Metabotropic glutamate receptor 8 (Rattus norvegicus) outcome for O=C(NC(=S)N1CCCc2ccccc21)c1ccc(Cl)cc1 = inactive; 0

Tested system Metabotropic glutamate receptor 8 (Rattus norvegicus); outcome recorded for S=C(Nc1ccc(Oc2ccccc2)cc1)NC1CCCC1 was active; 2

Record FC(F)(F)c1cccc(NC(=S)NCc2ccccc2)c1 / Metabotropic glutamate receptor 8 (Rattus norvegicus), outcome recorded as inactive; 4

Reported outcome (Metabotropic glutamate receptor 8 (Rattus norvegicus)) for entry O=C(N/N=C1/C(=O)c2cccc3cccc1c23)c1ccc(Cl)cc1 is inactive; 0

Measured on Metabotropic glutamate receptor 8 (Rattus norvegicus), CN(C)S(=O)(=O)c1cccc(NC(=S)Nc2ccc(Cl)cc2Cl)c1 has a documented outcome of inactive; 4

Response field outcome (Metabotropic glutamate receptor 8 (Rattus norvegicus)) for item Cc1cccc(N2C(=O)CS/C2=N\NC(=O)c2ccc(Cl)cc2)c1C : active; 2

GET /values?item= COc1ccccc1C(=O)NNC(=S)NC(=O)c1ccco1 &system= Metabotropic glutamate receptor 8 (Rattus norvegicus) returns outcome: inactive; 4

Per the reported Metabotropic glutamate receptor 8 (Rattus norvegicus) data, CCN(c1ccccc1)S(=O)(=O)c1ccc(NC(=S)NC(=O)c2ccc(Br)o2)cc1 has outcome of inactive; 0

Tested system Metabotropic glutamate receptor 8 (Rattus norvegicus); outcome recorded for COC(=O)c1onc(C(=O)c2ccccc2)c1C(=O)OC was inactive; 0

Cn1c(=O)c2c(nc(-n3ccnc3)n2Cc2ccccc2)n(C)c1=O on Metabotropic glutamate receptor 8 (Rattus norvegicus) gives outcome = inactive; 0

The measured outcome that CCCCN(CCCC)C(=S)NC(=O)C(C)(C)C showed for Metabotropic glutamate receptor 8 (Rattus norvegicus) is inactive; 0

Summary line: CCCN(CC1CC1)C(=S)Nc1ccc(Oc2ccccc2)cc1 , Metabotropic glutamate receptor 8 (Rattus norvegicus), reported outcome = inactive; 0

The recorded outcome with Metabotropic glutamate receptor 8 (Rattus norvegicus) for COc1ccc(N2CCN(c3nc4c(c(=O)n(C)c(=O)n4C)n3Cc3ccccc3)CC2)cc1 was inactive; 0

Value (outcome, Metabotropic glutamate receptor 8 (Rattus norvegicus)) for record Cc1cccc(NC(=S)NC(=O)c2ccco2)n1 = inactive; 0

outcome for Metabotropic glutamate receptor 8 (Rattus norvegicus) with input CCOC(=O)c1ccc(NC(=S)NC2CCCC2)cc1 equals inactive; 4

Measured outcome for this entry Cc1ccc(C)c(NC(=S)NNC(=O)c2csc3c2CCCC3)c1 on Metabotropic glutamate receptor 8 (Rattus norvegicus): inactive; 0

# value of outcome, Metabotropic glutamate receptor 8 (Rattus norvegicus), item FC(F)(F)Oc1ccc(NC(=S)NCc2ccccc2)cc1 = inactive; 4
